- STUDY TARGET: IL-17A : IL-17RA binding (Homo sapiens, UniProt Q16552, K93Q)
- Construct: Name: IL-17A-Flag
- Sequence (Q16552 with tags, fused parts or gaps K93Q): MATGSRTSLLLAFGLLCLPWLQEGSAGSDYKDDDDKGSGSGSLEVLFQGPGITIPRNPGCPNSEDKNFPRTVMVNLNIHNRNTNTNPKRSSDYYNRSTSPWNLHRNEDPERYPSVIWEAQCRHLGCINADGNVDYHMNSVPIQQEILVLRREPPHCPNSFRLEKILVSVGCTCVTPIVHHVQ
- TEST DESCRIPTION: IL-17A(FLAG-tagged):IL-17RA(His-tagged) binding disruption Eu-HTRF assay, Protocol 1
- TEST SETTINGS: FLAG-IL-17A 2.5 nM at 2x final concentration; average if tested more than once
pIC50: −log10 of the molar value.
MEASUREMENT KIND: pIC50

Recorded pIC50, per entry:
COMPOUND	pIC50
C[C@@H](NC(=O)CCC(F)(F)F)c1ccc2[nH]c([C@@H](NC(=O)[C@@H]3C[C@H]3C(F)(F)F)C3CCC(F)(F)CC3)nc2c1 (relative stereo) [Example 106]	< 7.00
COCCn1ncc(C(=O)N[C@H](c2nc3cc([C@@H](C)NC(=O)CCC(F)(F)F)ccc3[nH]2)C2CCC(F)(F)CC2)n1 [Example 14]	< 7.00

Next, consider the following compound.
// pIC50 lookup, key: C[C@@H](NC(=O)CCC(F)(F)F)c1ccc2[nH]c([C@@H](NC(=O)[C@H]3C[C@H]3F)C3CCC(F)(F)CC3)nc2c1 [Example 99]
< 7.00

====

- System: IL-17A-induced G-CSF production in human normal keratinocyte (NHK)
- TEST DESCRIPTION: NHK assay: IL-17A-induced G-CSF production in normal human keratinocytes
- Format: cell-based
- TEST SETTINGS: Homo sapiens, Keratinocyte, 24 h, IL-17A 5 ng/mL, average if tested more than once
- Protocol: IL-17A acts directly on keratinocytes through binding to dimeric receptor IL-17RA/RC and drives the production of a number of inflammatory mediators known to be elevated in psoriasis lesional tissue. IL-17A small molecule inhibitors that block the IL-17A to interact with IL-17R would inhibit the IL-17A signaling in its targeted cells such as keratinocytes. The compound functional activity is evaluated for its impact on IL-17A-induced G-CSF production in human normal keratinocyte (NHK). […]
pIC50: −log10 of the molar value.
MEASUREMENT KIND: pIC50

Recorded pIC50, per entry:
COMPOUND	pIC50
C[C@@H](NC(=O)CCC(F)(F)F)c1ccc2[nH]c([C@@H](NC(=O)c3cn(CC45CC(C#N)(C4)C5)nn3)C3CCC(F)(F)CC3)nc2c1 [Example 79]	< 7.00
Cc1nonc1C(=O)N[C@H](c1nc2cc([C@@H](NC(=O)CC3CC(F)(F)C3)C3CC3)ccc2[nH]1)C1CCC(F)(F)CC1 [Example 145]	< 7.00
Cc1nonc1C(=O)N[C@@H](COC(C)(C)C(F)(F)F)c1nc2ccc([C@H](NC(=O)CC3CC(F)(F)C3)C3CC3)cc2[nH]1 (relative stereo) [Example 161]	7.00 to 7.30
CCn1nc(C(=O)N[C@H](c2nc3cc([C@@H](C)NC(=O)CCC(F)(F)F)ccc3[nH]2)C2CCC(F)(F)CC2)cc1C(F)(F)F [Example 92]	< 7.00
CC(C)c1nonc1C(=O)NC(CC(C)(C)C(F)(F)F)c1nc2cc([C@@H](C)NC(=O)CCC(F)(F)F)ccc2[nH]1 (single isomer, unassigned) [Example 57]	> 7.30
CC(C)(OC[C@H](NC(=O)c1nonc1C1CC1)c1nc2cc([C@H](NC(=O)CC34CC(F)(C3)C4)C3CC3)ccc2[nH]1)C(F)(F)F [Example 166]	> 7.30

// pIC50 lookup, key: COCCn1nncc1C(=O)N[C@H](c1nc2cc([C@@H](C)NC(=O)CCC(F)(F)F)ccc2[nH]1)C1CCC(F)(F)CC1 [Example 15]
< 7.00

// pIC50 lookup, key: C[C@@H](NC(=O)CC(C(F)(F)F)C(F)(F)F)c1ccc2[nH]c([C@@H](NC(=O)c3cc(F)ccc3F)C3CCC(F)(F)CC3)nc2c1 [Example 130]
< 7.00

====

- Test system: IL-17A-induced G-CSF production in human normal keratinocyte (NHK)
- TEST DESCRIPTION: NHK assay: IL-17A-induced G-CSF production in normal human keratinocytes
- Format: cell-based
- TEST SETTINGS: Homo sapiens, Keratinocyte, 24 h, IL-17A 5 ng/mL, average if tested more than once
MEASUREMENT KIND: IC50

Recorded IC50, per entry:
MOLECULE	STUDY TARGET	IC50
C[C@@H](NC(=O)CCC(F)(F)F)c1ccc2[nH]c([C@@H](NC(=O)c3cnnn3CC3CC(F)(F)C3(F)F)C3CCC(F)(F)CC3)nc2c1 (stereo partly drawn) [Example 82]	IL-17A-induced G-CSF production in human normal keratinocyte (NHK)	> 100 nM
C[C@@H](NC(=O)CCC(F)(F)F)c1ccc2[nH]c([C@@H](NC(=O)c3cn(CC4CCC4)nc3C#N)C3CCC(F)(F)CC3)nc2c1 [Example 88]	IL-17A-induced G-CSF production in human normal keratinocyte (NHK)	> 100 nM

Next, consider the following molecule.
// IC50 lookup, key: CC(C)c1ncsc1C(=O)N[C@H](c1nc2cc([C@@H](C)NC(=O)CCC(F)(F)F)ccc2[nH]1)C1CCC(F)(F)CC1 [Example 203]
> 100 nM

====

- System: IL-17A-induced G-CSF production in human normal keratinocyte (NHK)
- TEST DESCRIPTION: NHK assay: IL-17A-induced G-CSF production in normal human keratinocytes
- Type: cell-based
- TEST SETTINGS: Homo sapiens, Keratinocyte, 24 h, IL-17A 5 ng/mL, average if tested more than once
MEASUREMENT KIND: IC50

Recorded IC50, per entry:
> print(dat)
                                   compound  readout.value
1  COCC(NC(=O)CC1CC(F)(F)C1)c1ccc2[nH]c([C@H](COC(C)(C)C(F)(F)F)NC(=O)c3nonc3C3CC3)nc2c1 (single isomer, unassigned)       > 0.1 µM
2  C[C@@H](NC(=O)CCC(F)(F)F)c1ccc2[nH]c([C@@H](NC(=O)[C@H]3C[C@H]3F)C3CCC(F)(F)CC3)nc2c1       > 0.1 µM
3  C[C@@H](NC(=O)CCC(F)(F)F)c1ccc2[nH]c([C@@H](NC(=O)c3ncn(C)n3)C3CCC(F)(F)CC3)nc2c1       > 0.1 µM

Look up IC50 with IL-17A-induced G-CSF production in human normal keratinocyte (NHK) for this compound: "[2H]C([2H])([2H])C([2H])([2H])n1nccc1C(=O)N[C@@H](COC(C)(C)C(F)(F)F)c1nc2ccc([C@H](NC(=O)CC3CC(F)(F)C3)C3CC3)cc2[nH]1"
< 0.05 µM

Look up IC50 with IL-17A-induced G-CSF production in human normal keratinocyte (NHK) for this compound: "CC(C)CCn1ncc(C(=O)N[C@H](c2nc3cc([C@@H](C)NC(=O)CCC(F)(F)F)ccc3[nH]2)C2CCC(F)(F)CC2)c1C(C)C"
> 0.1 µM

Look up IC50 with IL-17A-induced G-CSF production in human normal keratinocyte (NHK) for this compound: "CC(C)c1ocnc1C(=O)N[C@H](c1nc2cc([C@@H](C)NC(=O)CCC(F)(F)F)ccc2[nH]1)C1CCC(F)(F)CC1"
> 0.1 µM

Look up IC50 with IL-17A-induced G-CSF production in human normal keratinocyte (NHK) for this compound: "CC(C)n1cnc(C(=O)N[C@H](c2nc3cc([C@@H](C)NC(=O)CCC(F)(F)F)ccc3[nH]2)C2CCC(F)(F)CC2)n1"
> 0.1 µM

Look up IC50 with IL-17A-induced G-CSF production in human normal keratinocyte (NHK) for this compound: "COCCn1cc(C(=O)N[C@H](c2nc3cc([C@@H](C)NC(=O)CCC(F)(F)F)ccc3[nH]2)C2CCC(F)(F)CC2)nn1"
> 0.1 µM

Look up IC50 with IL-17A-induced G-CSF production in human normal keratinocyte (NHK) for this compound: "Cc1n[nH]cc1C(=O)N[C@H](c1nc2cc([C@@H](C)NC(=O)CCC(F)(F)F)ccc2[nH]1)C1CCC(F)(F)CC1"
> 0.1 µM

Look up IC50 with IL-17A-induced G-CSF production in human normal keratinocyte (NHK) for this compound: "C[C@@H](NC(=O)CCC(F)(F)F)c1ccc2[nH]c([C@@H](NC(=O)c3cnc(CCC(F)(F)F)s3)C3CCC(F)(F)CC3)nc2c1"
> 0.1 µM

Look up IC50 with IL-17A-induced G-CSF production in human normal keratinocyte (NHK) for this compound: CCc1nonc1C(=O)N[C@@H](CC(C)(C)C(F)(F)F)c1nc2cc([C@@H](NC(=O)CCC(F)(F)F)C3CC3)ccc2[nH]1 (relative stereo)
> 0.1 µM

====

- Test system: IL-17A-induced G-CSF production in human normal keratinocyte (NHK)
- TEST DESCRIPTION: NHK assay: IL-17A-induced G-CSF production in normal human keratinocytes
- Assay type: cell-based
- TEST SETTINGS: Homo sapiens, Keratinocyte, 24 h, IL-17A 5 ng/mL, average if tested more than once
- Experimental: IL-17A acts directly on keratinocytes through binding to dimeric receptor IL-17RA/RC and drives the production of a number of inflammatory mediators known to be elevated in psoriasis lesional tissue. IL-17A small molecule inhibitors that block the IL-17A to interact with IL-17R would inhibit the IL-17A signaling in its targeted cells such as keratinocytes. The compound functional activity is evaluated for its impact on IL-17A-induced G-CSF production in human normal keratinocyte (NHK). […]
MEASUREMENT KIND: IC50

Recorded IC50, per entry:
> print(dat)
                                smiles.code                              study.target  measurement.kind  readout.value
1  C[C@H](NC(=O)CCC(F)(F)F)c1ccc2[nH]c([C@@H](NC(=O)c3ccnn3CCC(F)(F)F)C3CCC(F)(F)CC3)nc2c1  IL-17A-induced G-CSF production in human normal keratinocyte (NHK)              IC50       > 100 nM
2  Cc1nonc1C(=O)N[C@H](c1nc2ccc([C@H](NC(=O)CC3CC(F)(F)C3)C3CC3)cc2[nH]1)[C@H]1C[C@@H]2[C@H](C1)C2(F)F  IL-17A-induced G-CSF production in human normal keratinocyte (NHK)              IC50       > 100 nM

Next, consider the following compound.
// IC50 lookup, key: "C[C@@H](NC(=O)CCC(F)(F)F)c1ccc2[nH]c([C@@H](NC(=O)c3cnn(CCC(F)(F)F)n3)[C@@H]3CCCC(F)(F)C3)nc2c1"
> 100 nM
